For each record, write down the corresponding cell viability.
Tested on: P12-Ichikawa
method-summary: cell viability relative to DMSO control; higher = less cytotoxic
condition-parameters: RPMI 5 mM glucose + 10% FBS; 48 h; 5.12 µM
# output: numeric value plus its unit

Solved entries (count: 6):
NNC(=O)c1ccncc1 :: 116%
COCCNCCCn1c(C(=O)CF)c(-c2ccc(C)cc2)c2c(N)ncnc21 :: 104%
CC[C@@H](C)[C@H](NC(=O)[C@H](CC1CCCCC1)NC(=O)c1ccno1)C(=O)N1CCC2(CCc3ccccc32)CC1 :: 99.8%
CC1(C)CCC(=C(\C1)C2=CC=C(Cl)C=C2)/CN3CCN(CC3)C4=CC(=C(C=C4)C(=O)N[S+]([O-])(=O)C5=CC=C(NCC6CCOCC6)C(=C5)[N+]([O-])=O)OC7=CN=C8[NH]C=CC8=C7 :: 96.5%
COC1=CC=CC(=C1/C2=N/CC3=C(N=C(NC4=CC(=C(C=C4)C(O)=O)OC)N=C3)C5=CC=C(Cl)C=C25)F :: 15.8%
COC(=O)[C@@H]1CC2=CC(=O)CC[C@]2(C)[C@@]23O[C@@H]2C[C@@]2(C)[C@@H](CC[C@@]24CCC(=O)O4)[C@H]13 :: 130%

Give measured cell viability for every item shown.
1. CN(C)c1ccccc1CN1CCCN(Cc2ccccc2N(C)C)C1c1ccncc1
2. O=C(Nc1ccncc1)C(=O)c1cn(Cc2ccc(Cl)cc2)c2ccccc12
3. NC(=O)[C@@H](CCC(F)(F)F)N(Cc1ccc(-c2ncon2)cc1F)[S+](=O)([O-])c1ccc(Cl)cc1
4. CC1(C)NC(=O)N(c2ccc([N+](=O)[O-])c(C(F)(F)F)c2)C1=O

1. 103%
2. 34.1%
3. 81.6%
4. 82.8%

Can you give me cell viability for all of these, one by one?
1. CCc1nc(C(N)=O)c(Nc2ccc(N3CCC(N4CCN(C)CC4)CC3)c(OC)c2)nc1NC1CCOCC1
2. Cc1ccc(C)c(OCCCC(C)(C)C(=O)O)c1
3. O=C(O)CCc1ccc(NCc2cccc(Oc3ccccc3)c2)cc1
4. NC/1=N/C(=O)C2=C([NH]C=C2CCC3=CC=C(C=C3)C(=O)N[C@@H](CCC(O)=O)C(O)=O)N1
5. CN1CCN(CC1)C/2=N/C3=CC=CC=C3NC4=C2C=C(C)S4

88.9%
84.1%
110%
64.5%
72.2%

// batch mode: one cell viability value per listed entry
1. CN1CCN(c2cc(C(=O)Nc3ccc4c(c3)-c3c(c(C(N)=O)nn3-c3ccc(F)cc3)CC4)c(Cl)cn2)CC1
2. O=C1C(CCC(O)c2ccc(F)cc2)C(c2ccc(O)cc2)N1c1ccc(F)cc1 (stereo not drawn)
3. CN(C)[C@H]\1[C@@H]2[C@@H](O)[C@H]3\C(=C(O)/[C@]2(O)C(=O)\C(=C1O)C(N)=O)C(=O)C4=C(C=CC=C4O)[C@@]3(C)O

103%
127%
96.1%

----------
Exercise: state measured cell viability for each of the compounds provided.
System: SEM cells
method-summary: cell viability relative to DMSO control; higher = less cytotoxic
condition-parameters: RPMI 5 mM glucose + 10% FBS; 48 h; 0.569 µM
Numbers only, in %.

NNC(=O)c1ccncc1 :: 37.3
CC(=O)O/N=C1/C(=C2\C(=O)Nc3cc(Br)ccc32)Nc2ccccc21 :: 87.6
CCCCc1ccc(N[S+](=O)([O-])c2ccc(C)c(C(=O)N3CCN(c4cccc(C)c4C)CC3)c2)cc1 :: 137
O=C(c1ccc(C(=O)N2CCC(N3CCCC3)CC2)c(Nc2ccccc2)c1)N1CCC(N2CCCC2)CC1 :: 117
CC1(C)NC(=O)N(c2ccc([N+](=O)[O-])c(C(F)(F)F)c2)C1=O :: 99.6

// for each compound in input: emit cell viability
1. Cc1cc(-c2ccc(CC(=O)Nc3ccc(-c4cccnc4)cc3)cc2)ccn1
2. CC1(C)CCC(=C(\C1)C2=CC=C(Cl)C=C2)/CN3CCN(CC3)C4=CC(=C(C=C4)C(=O)N[S+]([O-])(=O)C5=CC=C(NCC6CCOCC6)C(=C5)[N+]([O-])=O)OC7=CN=C8[NH]C=CC8=C7
3. CC[P](CC)(CC)=[Au][S][C@@H]1O[C@H](COC(C)=O)[C@@H](OC(C)=O)[C@H](OC(C)=O)[C@H]1OC(C)=O
4. CN(C)Cc1cccc(N/C(=C2\C(=O)Nc3cc(C(=O)N(C)C)ccc32)c2ccccc2)c1
5. CNC(=O)c1cc(Oc2ccc(NC(=O)Nc3ccc(Cl)c(C(F)(F)F)c3)c(F)c2)ccn1
6. NCC/1=C/NC(=S)N1[C@H]2CCC3=C(F)C=C(F)C=C3C2

1. 131
2. 11.1
3. 89.8
4. 104
5. 44.1
6. 120

Okay, here is my list. What is cell viability for each of these?
1. OC[C@H]1O[C@H](C[C@@H]1O)N2\C=C(\I)C(=O)NC2=O
2. CC1CCN(c2cc(N3CCN(C)CC3)ccc2NC(=O)c2cc(C#N)c[nH]2)CC1
3. N[C@@H](Cc1cc(I)c(Oc2cc(I)c(O)c(I)c2)c(I)c1)C(=O)O
4. CCCCCCCN(CC)CCCC(O)c1ccc(NS(C)(=O)=O)cc1.CCCCCCCN(CC)CCCC(O)c1ccc(NS(C)(=O)=O)cc1.O=C(O)/C=C/C(=O)O (stereo unspecified)

1. 101
2. 133
3. 115
4. 88.9

Report cell viability for each item below.
1. N[S+](=O)([O-])c1cc2c(cc1Cl)NCN[S+]2(=O)[O-]
2. COc1ccccc1OCC(O)CN1CCN(CC(=O)Nc2c(C)cccc2C)CC1 (stereo unspecified)
3. CNC(=O)c1cc(COc2nnc(Nc3ccc(Cl)cc3)c3ccoc23)ccn1
4. CN1CCN(CC1)C/2=N/C3=CC=CC=C3NC4=C2C=C(C)S4
5. Oc1ccc(C2CNCCc3c2cc(O)c(O)c3Cl)cc1 (stereo unspecified)

[114, 123, 128, 95.5, 90.8]

----------
Hi there, I'd appreciate the recorded cell viability for every entry that follows.
System: SEM cells
method-summary: cell viability relative to DMSO control; higher = less cytotoxic
condition-parameters: RPMI 5 mM glucose + 10% dialyzed FBS; 48 h; 0.0211 µM
Numbers only, in %.

NC(=O)Cc1cccc(C(=O)c2ccccc2)c1N :: 43.1
COC1=CC=CC(=C1/C2=N/CC3=C(N=C(NC4=CC(=C(C=C4)C(O)=O)OC)N=C3)C5=CC=C(Cl)C=C25)F :: 88.8
N[C@@H](Cc1ccc(N(CCCl)CCCl)cc1)C(=O)O :: 126

Okay, here is my list. What is cell viability for each of these?
1. C[C@]12CCC(=O)C(O)=C1CC[C@@H]1[C@@H]2CC[C@]2(C)C(=O)CC[C@@H]12
2. Oc1ccc(C2CNCCc3c2cc(O)c(O)c3Cl)cc1 (stereo unspecified)

1: 130; 2: 96.6

Your task in this section: give cell viability for each listed record.
1. COc1cc2nc(N3CCN(C(=O)c4ccco4)CC3)nc(N)c2cc1OC
2. CCc1nc(C(N)=O)c(Nc2ccc(N3CCC(N4CCN(C)CC4)CC3)c(OC)c2)nc1NC1CCOCC1
3. Clc1ccc(C(Cn2ccnc2)OCc2ccsc2Cl)c(Cl)c1 (stereo unspecified)

104
139
117

# batch size: 3; output cell viability per entry
1. CC(C)C[C@@H](C(=O)N[C@H](C(=O)OC1CCCC1)c1ccccc1)[C@H](O)C(=O)NO
2. COc1cc([C@@H]2c3cc4c(cc3[C@@H](O)C3COC(=O)C32)OCO4)cc(OC)c1O (stereo partly specified)
3. CC[C@@H](C)[C@H](NC(=O)[C@H](CC1CCCCC1)NC(=O)c1ccno1)C(=O)N1CCC2(CCc3ccccc32)CC1

114
16.1
105

----------
Tested on: SEM cells
method-summary: cell viability relative to DMSO control; higher = less cytotoxic
condition-parameters: HPLM + 10% dialyzed FBS; 48 h; 1.71 µM
Please go through the items and note down their cell viability.
Answers are plain numbers, in %.

Cc1nc(N)sc1-c1ccnc(Nc2ccc(N3CCOCC3)cc2)n1 :: 83.8

Record cell viability for all entries; do not skip any.
1. O=C(Nc1ccncc1)C(=O)c1cn(Cc2ccc(Cl)cc2)c2ccccc12
2. O=C1N\N=C(\C[C@@H]2CCN(C2)C(=O)C3CC3)N1C4=CC=C(C=C4)C5=CC=C6OC=CC6=C5

1. 24.7
2. 71.3

Hi team, please reply with cell viability for each item in this list.
1. Clc1ccc(C(Cn2ccnc2)OCc2ccc(Sc3ccccc3)cc2)c(Cl)c1 (configuration not stated)
2. CC1CCN(c2cc(N3CCN(C)CC3)ccc2NC(=O)c2cc(C#N)c[nH]2)CC1
3. CN(C)[C@H]\1[C@@H]2[C@@H](O)[C@H]3\C(=C(O)/[C@]2(O)C(=O)\C(=C1O)C(N)=O)C(=O)C4=C(C=CC=C4O)[C@@]3(C)O
4. CN1CCN(c2cc(C(=O)Nc3ccc4c(c3)-c3c(c(C(N)=O)nn3-c3ccc(F)cc3)CC4)c(Cl)cn2)CC1
5. O=C(O)c1nn(Cc2ccc(Cl)cc2Cl)c2ccccc12
6. CCN(CC)CCNC(=O)c1ccc2nc(-c3ccccc3)c(-c3ccc(CN4CCC(n5c(=O)[nH]c6ccccc65)CC4)cc3)nc2c1
7. CC1(C)NC(=O)N(c2ccc([N+](=O)[O-])c(C(F)(F)F)c2)C1=O

[77.9, 118, 103, 103, 92.3, 26.7, 90.8]

Batch: cell viability for all items listed.
1. CN1C(=O)\C(=C/C2=C1N=C(NC3CCOCC3)N=C2)OC4=C(F)C=C(F)C=C4
2. O=C(/C=C/c1cccnc1)NCCCCC1CCN(C(=O)c2ccccc2)CC1

92
6.08

Look up cell viability for the entries below, preserving their order.
1. Cc1ccc([S+](=O)([O-])NC(=O)NN2CC3CCCC3C2)cc1 (configuration not stated)
2. COCCNCCCn1c(C(=O)CF)c(-c2ccc(C)cc2)c2c(N)ncnc21
3. C=C1C(=O)O[C@@H]2[C@H]3O[C@]3(C)CC/C=C(\C)CC[C@@H]12
4. COC1=CC2=C(C=C1CC3=C(F)C(=CC=C3)Cl)C(=O)\C(=C/N2[C@H](CO)C(C)C)C(O)=O
5. Oc1ccc(-c2nc(-c3ccncc3)c(-c3ccc(F)cc3)[nH]2)cc1

86.1
99.7
40.5
106
45.4
